# system: Sodium-dependent dopamine transporter (Rattus norvegicus)
# Sequence (P23977 whole entry): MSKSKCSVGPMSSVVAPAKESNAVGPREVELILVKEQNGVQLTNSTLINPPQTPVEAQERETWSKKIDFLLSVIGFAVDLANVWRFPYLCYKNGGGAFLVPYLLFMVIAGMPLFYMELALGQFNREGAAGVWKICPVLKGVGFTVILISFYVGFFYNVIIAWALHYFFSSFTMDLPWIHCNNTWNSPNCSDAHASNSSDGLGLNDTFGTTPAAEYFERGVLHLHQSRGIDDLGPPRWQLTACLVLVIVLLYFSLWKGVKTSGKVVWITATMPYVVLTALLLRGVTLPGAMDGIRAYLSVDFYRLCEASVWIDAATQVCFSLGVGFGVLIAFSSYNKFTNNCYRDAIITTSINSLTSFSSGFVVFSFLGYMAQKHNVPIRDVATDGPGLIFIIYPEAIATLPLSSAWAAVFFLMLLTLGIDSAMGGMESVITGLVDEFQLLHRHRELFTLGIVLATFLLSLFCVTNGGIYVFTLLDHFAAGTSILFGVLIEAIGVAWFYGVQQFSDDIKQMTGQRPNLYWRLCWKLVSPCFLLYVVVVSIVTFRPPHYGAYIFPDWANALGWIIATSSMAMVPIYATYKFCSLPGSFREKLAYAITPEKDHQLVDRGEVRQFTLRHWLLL
# procedure.summary: Displacement of [3H]WIN-35428 from dopamine transporter in rat caudate putamen tissue
# Format: tissue-based

compound | readout.unit | Ki
COC(=O)C[C@H]1C2C[C@@H](C)C(C[C@@H]1Cc1ccccc1)N2C (stereo in doubt; 21b) | µM | 0.057
COC(=O)C[C@@H]1C2C[C@@H](Cc3ccccc3)C(C[C@@H]1Cc1ccccc1)N2C (stereo partly drawn) | µM | 3.08
COC(=O)CC1C(Cc2ccccc2)CC2CCC1N2C (single isomer, unassigned; (+)) | µM | 0.06
CCCC1CC2C(CC(=O)OC)C(Cc3ccccc3)CC1N2C (stereo in doubt; 22d) | µM | 57.3
COC(=O)C[C@H]1C2C[C@@H](C)C(C[C@@H]1Cc1ccccc1)N2C (stereo in doubt; 22b) | µM | 0.294
COC(=O)C[C@H]1C2C[C@@H](Cc3ccccc3)C(C[C@@H]1Cc1ccccc1)N2C (stereo partly drawn) | µM | 7.59
CCC[C@H]1CC2[C@@H](CC(=O)OC)[C@@H](Cc3ccccc3)CC1N2C (stereo in doubt; 20d) | µM | 7.24
CCCC1CC2C(CC(=O)OC)C(Cc3ccccc3)CC1N2C (stereo in doubt; 21d) | µM | 5.85

Data provenance is ChEMBL document CHEMBL1130279.
